Attribution: the supplement of paper PMC12667976

Known AIRE transcriptional activation functional score of a selection of variants
B1: library; numbered along this chain (parent)
chain: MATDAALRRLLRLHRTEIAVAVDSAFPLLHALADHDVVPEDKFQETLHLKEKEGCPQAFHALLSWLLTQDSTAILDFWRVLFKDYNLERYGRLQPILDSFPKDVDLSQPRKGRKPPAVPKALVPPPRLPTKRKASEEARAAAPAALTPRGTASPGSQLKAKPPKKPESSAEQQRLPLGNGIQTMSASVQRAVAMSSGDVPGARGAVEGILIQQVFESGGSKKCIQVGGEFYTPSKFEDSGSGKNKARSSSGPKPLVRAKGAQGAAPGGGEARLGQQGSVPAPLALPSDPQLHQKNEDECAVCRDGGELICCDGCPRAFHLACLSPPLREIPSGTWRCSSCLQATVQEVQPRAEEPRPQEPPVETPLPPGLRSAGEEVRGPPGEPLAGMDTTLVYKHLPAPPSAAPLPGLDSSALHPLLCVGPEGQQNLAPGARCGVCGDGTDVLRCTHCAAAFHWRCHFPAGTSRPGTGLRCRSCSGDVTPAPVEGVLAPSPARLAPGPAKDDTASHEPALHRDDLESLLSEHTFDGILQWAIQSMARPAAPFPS

variants of: B1; test: AIRE transcriptional activation functional score (insulin promoter-GFP; nonsense median 0, synonymous median 1) (normalised score); higher = higher AIRE activity (more reporter activation); conditions: with insulin promoter-GFP reporter in HEK293
Readout kind: AIRE transcriptional activation functional score

# Variant string, Observed
data = [
    ("P154M", -0.062),
    ("K131Q", -0.125),
    ("K114I", 1.03),
    ("G387T", 1.22),
    ("D439W", 1.2),
    ("P365K", 1.17),
    ("R110V", 1.21),
    ("W455E", 1.17),
    ("I74Y", 0.19),
    ("A399Y", -0.0769),
    ("A452T", 0.973),
    ("L285R", 1.02),
    ("S464T", 0.783),
    ("Q534M", 0.598),
    ("E383I", 0.922),
    ("L81T", 0.331),
    ("E508V", 0.577),
    ("A505T", -0.258),
    ("A134N", 1.63),
    ("V479D", 0.363),
    ("K131D", -0.154),
    ("P368N", 1.58),
    ("S332G", 1.09),
    ("G527L", 0.0948),
    ("R471Y", 1.13),
    ("S107P", 0.096),
    ("G263M", 0.957),
    ("S196G", 0.938),
    ("G387K", 0.344),
    ("A142W", 1.28),
    ("G197Q", 0.484),
    ("E270H", 1.56),
    ("P125V", 1.19),
    ("D41A", 1.59),
    ("E363K", 1.09),
    ("R272W", 0.893),
    ("Q534D", -0.117),
    ("L97W", -1.69),
    ("I528D", 0.302),
    ("L75Q", 0.0287),
    ("D41E", 1.17),
    ("L175R", 1.06),
    ("R473F", 0.997),
    ("A73F", 0.15),
    ("S196E", 1.06),
    ("K221V", 0.663),
    ("E17I", -0.454),
    ("C472G", 0.0511),
    ("A352Q", 0.697),
    ("G263E", 1.42),
    ("A145G", 1.29),
    ("P129S", 0.685),
    ("A429R", 0.843),
    ("N86T", -0.124),
    ("F59P", 0.0711),
    ("A399G", 0.994),
    ("D98F", 0.239),
    ("V199K", 0.754),
    ("A140E", 1.36),
    ("S521W", 0.299),
    ("A145C", 1.07),
    ("A281L", 1.31),
    ("K253D", -0.542),
    ("A144V", 1.1),
    ("V256H", 0.851),
    ("A134P", -0.0505),
    ("Q182W", 0.0615),
    ("P509C", 0.247),
    ("L320S", 0.896),
    ("E207H", 0.756),
    ("S535R", 0.12),
    ("G379N", 1.23),
    ("T334G", 1.23),
    ("V80A", -0.0867),
    ("K52C", -0.346),
    ("T147E", 1.45),
    ("K243Y", -0.257),
    ("A142P", 0.882),
    ("T183L", 0.699),
    ("G440K", 0.598),
    ("C310W", 0.433),
    ("H14I", -0.18),
    ("G219S", 0.761),
    ("P119A", 1.03),
    ("F26N", 0.281),
    ("R127G", 0.421),
    ("F459P", 0.572),
    ("A284C", 0.943),
    ("G435A", 1.16),
]
